assay: HFrEF study Part 1 (SAD Cohorts 1 and 2): plasma pharmacokinetics; assay type: in vivo, human; details: human, plasma, oral, 400 mg, SAD Cohort 2, 400 mg split dose (n = 4)
endpoint name: Tmax (h)
Please state the figure in h; there is no need to write the unit.

Incoming: Returns the measured Tmax for the input compound. Input: `Cn1cc(S(=O)(=O)[C@@](C)(F)C2CCN(C(=O)Nc3ccon3)CC2)c(C(F)F)n1`
Outgoing: 9

====

experiment: Single ascending oral dose study in healthy volunteers: plasma pharmacokinetics; type: in vivo, human; conditions: human, plasma, oral, 525 mg; read-out: Cmax, Mean
endpoint name: Cmax
Entry format: amount then unit.

Incoming: Returns the measured Cmax for the input compound. Input: Cn1cc(S(=O)(=O)[C@@](C)(F)C2CCN(C(=O)Nc3ccon3)CC2)c(C(F)F)n1 [Compound I]
Outgoing: 2350 ng/mL

====

assay: Food effect cross-over study, 200 mg (25 mg tablets), healthy volunteers: plasma pharmacokinetics; assay type: in vivo, human; conditions: human, plasma, oral, 1 hour postdose, Fed, read-out: Plasma concentration, Mean
endpoint name: concentration at 1 h (ng/mL)
Please state the figure in ng/mL; there is no need to write the unit.

Incoming: Returns the measured concentration at 1 h for the input compound. Input: Cn1cc(S(=O)(=O)[C@@](C)(F)C2CCN(C(=O)Nc3ccon3)CC2)c(C(F)F)n1 [Compound I]
Outgoing: 1320

====

assay: Single ascending oral dose study in healthy volunteers: plasma pharmacokinetics; format: in vivo, human; conditions: human, plasma, oral, 350 mg; read-out: AUC0-last, Geometric Mean
endpoint name: AUC(0-t) (ng·h/mL)
Please state the figure in ng·h/mL; there is no need to write the unit.

Incoming: Returns the measured AUC(0-t) for the input compound. Input: `Cn1cc(S(=O)(=O)[C@@](C)(F)C2CCN(C(=O)Nc3ccon3)CC2)c(C(F)F)n1`
Outgoing: 73200

====

Experiment: Single ascending oral dose study in healthy volunteers: plasma pharmacokinetics
Type: in vivo, human
Conditions: human, plasma, oral, 3 mg; read-out: AUC0-24, Geometric Mean
Source text: This example describes the first-in-human study of Compound I. Based on its mechanism of action, Compound I may offer a targeted therapy for patients with DCM caused by genetic or nongenetic mechanisms. […] The concentrations of Compound I in human plasma and urine were quantitated by high performance liquid chromatography with tandem mass spectrometric detection (LC MS/MS) (Biological sample analysis study report Alturas AD17-726). […]
endpoint name: AUC(0-t) (ng·h/mL)
Please state the figure in ng·h/mL; there is no need to write the unit.

Incoming: Returns the measured AUC(0-t) for the input compound. Input: `Cn1cc(S(=O)(=O)[C@@](C)(F)C2CCN(C(=O)Nc3ccon3)CC2)c(C(F)F)n1`
Outgoing: 514

====

assay: Single ascending oral dose study in healthy volunteers: plasma pharmacokinetics; format: in vivo, human; conditions: human, plasma, oral, 3 mg, 24 Hours Postdose; 3 mg; read-out: Plasma concentration, Median
endpoint name: concentration at 24 h (ng/mL)
Please state the figure in ng/mL; there is no need to write the unit.

Incoming: Returns the measured concentration at 24 h for the input molecule. Input: Cn1cc(S(=O)(=O)[C@@](C)(F)C2CCN(C(=O)Nc3ccon3)CC2)c(C(F)F)n1 [Compound I]
Outgoing: 10.8

====

test: Single ascending oral dose study in healthy volunteers: plasma pharmacokinetics; assay type: in vivo, human; settings: human, plasma, oral, 25 mg; read-out: Half-Life Lambda Z, Mean (converted)
endpoint name: half-life (h)
Please state the figure in h; there is no need to write the unit.

Incoming: Returns the measured half-life for the input compound. Input: `Cn1cc(S(=O)(=O)[C@@](C)(F)C2CCN(C(=O)Nc3ccon3)CC2)c(C(F)F)n1`
Outgoing: 13.3
